B1: glmS ribozyme (parent)
chain: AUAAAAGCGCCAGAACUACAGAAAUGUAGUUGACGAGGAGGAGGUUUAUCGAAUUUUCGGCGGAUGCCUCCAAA

# Variants of: B1
# assay.protocol: self-cleavage kobs at 10000 uM GlcN6P; higher = faster cleavage; RNA array
# test.context: with glucosamine-6-phosphate
This sample holds only a part of the variants without activity.
Returns 1 if the recorded self-cleavage kobs at 10000 uM GlcN6P is greater than or equal to 0.0001 s⁻¹, and 0 otherwise.

[
  {
    "mutations": "U55C C58U",
    "assigned.category": 0
  },
  {
    "mutations": "A33C A39U",
    "assigned.category": 1
  },
  {
    "mutations": "A52G G66A",
    "assigned.category": 1
  },
  {
    "mutations": "G44A U49A",
    "assigned.category": 0
  },
  {
    "mutations": "U30G G40U",
    "assigned.category": 1
  },
  {
    "mutations": "A12C U69C",
    "assigned.category": 1
  },
  {
    "mutations": "G32U U57A C68G",
    "assigned.category": 0
  },
  {
    "mutations": "C11A G44U G59U",
    "assigned.category": 1
  },
  {
    "mutations": "U65A C70U",
    "assigned.category": 1
  },
  {
    "mutations": "G7U C11G",
    "assigned.category": 0
  },
  {
    "mutations": "A15U G66A",
    "assigned.category": 1
  },
  {
    "mutations": "A6G G9A",
    "assigned.category": 0
  },
  {
    "mutations": "A15C A48C",
    "assigned.category": 0
  },
  {
    "mutations": "A12C G29C C70U",
    "assigned.category": 1
  },
  {
    "mutations": "A14U U65A",
    "assigned.category": 1
  },
  {
    "mutations": "U49A C50G G51A C61A G62U",
    "assigned.category": 0
  },
  {
    "mutations": "C8G A48G U54A",
    "assigned.category": 0
  },
  {
    "mutations": "A15C U56A",
    "assigned.category": 1
  },
  {
    "mutations": "G51U A53U G60U C70U",
    "assigned.category": 0
  },
  {
    "mutations": "A33U A64U",
    "assigned.category": 0
  },
  {
    "mutations": "A12G C68U",
    "assigned.category": 1
  },
  {
    "mutations": "C10U U45G G51U A64U",
    "assigned.category": 0
  },
  {
    "mutations": "C50G C70G",
    "assigned.category": 0
  },
  {
    "mutations": "G43C U56A C61G",
    "assigned.category": 0
  },
  {
    "mutations": "A53U U56C",
    "assigned.category": 1
  },
  {
    "mutations": "C58A C70U",
    "assigned.category": 1
  },
  {
    "mutations": "G59A C71U",
    "assigned.category": 0
  },
  {
    "mutations": "U30A A42U",
    "assigned.category": 0
  },
  {
    "mutations": "A15U G29C",
    "assigned.category": 1
  },
  {
    "mutations": "G41A U47C",
    "assigned.category": 0
  },
  {
    "mutations": "A15G C68U",
    "assigned.category": 1
  },
  {
    "mutations": "C16U U31C A36G G41C",
    "assigned.category": 0
  },
  {
    "mutations": "U56G G63U",
    "assigned.category": 0
  },
  {
    "mutations": "C16G G32U",
    "assigned.category": 1
  },
  {
    "mutations": "A33G A36G A52U",
    "assigned.category": 0
  },
  {
    "mutations": "A14C A53C G62C C68G",
    "assigned.category": 0
  },
  {
    "mutations": "A14G C67G",
    "assigned.category": 1
  },
  {
    "mutations": "C8A A42G C68U",
    "assigned.category": 0
  },
  {
    "mutations": "U31G G44U C61U",
    "assigned.category": 0
  },
  {
    "mutations": "G43U G44U U65G",
    "assigned.category": 0
  },
  {
    "mutations": "U54G G62U",
    "assigned.category": 0
  },
  {
    "mutations": "C11A U30G",
    "assigned.category": 1
  },
  {
    "mutations": "A14C C16A U31C G35C U55G",
    "assigned.category": 0
  },
  {
    "mutations": "C11U G66A U69A",
    "assigned.category": 0
  },
  {
    "mutations": "A6G A53C C58A C61A",
    "assigned.category": 0
  },
  {
    "mutations": "A42U G51U",
    "assigned.category": 0
  }
]
